Listing: pEC50 of selected compounds
# Tested system: SST2 (Homo sapiens, UniProt P30874)
# Construct: host or cells: PathHunter CHO-K1 SST2 cells
# Sequence (P30874 whole entry): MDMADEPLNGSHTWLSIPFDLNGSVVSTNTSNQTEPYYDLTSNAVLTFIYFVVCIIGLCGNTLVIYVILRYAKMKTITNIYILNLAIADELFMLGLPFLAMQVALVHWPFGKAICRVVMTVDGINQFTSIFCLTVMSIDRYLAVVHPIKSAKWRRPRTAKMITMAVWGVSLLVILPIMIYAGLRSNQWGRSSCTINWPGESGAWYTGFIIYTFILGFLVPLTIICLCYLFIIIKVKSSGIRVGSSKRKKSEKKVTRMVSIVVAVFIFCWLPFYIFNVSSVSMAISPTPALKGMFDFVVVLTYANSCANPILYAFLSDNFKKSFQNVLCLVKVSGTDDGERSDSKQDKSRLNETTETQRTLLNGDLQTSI
# Test name: PathHunter CHO-K1 SST2 internalization assay
# Format: cell-based
# Condition summary: PathHunter CHO-K1 SST2, 90 min; read-out: Internalization EC50
Field pEC50 (float): negative decimal logarithm of the concentration in molar.

COc1cc2cc(c1Cl)N(C)C(=O)CC(OC(=O)[C@@H](C)N(C)C(=O)CCS[C@H]1CC(=O)N(CC3CCC(C(=O)NCCCC[C@H](N)C(=O)NCCNc4ncc(-c5cc(C)cc(F)c5)c(N5CCC(N)CC5)c4-c4nc5ccc(Cl)cc5[nH]4)CC3)C1=O)[C@]1(C)OC1[C@@H](C)C1C[C@@](O)(NC(=O)O1)[C@H](OC)/C=C/C=C(\C)C2 (some centres unmarked) [Compound 7] = 7.68
CC[C@H](C)[C@@H]([C@@H](CC(=O)N1CCC[C@H]1[C@H](OC)[C@@H](C)C(=O)N[C@H](C)[C@@H](O)c1ccccc1)OC)N(C)C(=O)[C@@H](NC(=O)[C@H](C(C)C)N(C)C(=O)OCc1ccc(NC(=O)[C@H](CCCNC(N)=O)NC(=O)[C@@H](NC(=O)[C@H](CCC(N)=O)NC(=O)CCOCCOCCOCCOCCC(=O)NCCNc2ncc(-c3cc(C)cc(F)c3)c(N3CCC(N)CC3)c2-c2nc3ccc(Cl)cc3[nH]2)C(C)C)cc1C(=O)NC)C(C)C [Compound 60] = 7.89

### Prompt Find the recorded pEC50 belonging to CC[C@H](C)[C@@H]([C@@H](CC(=O)N1CCC[C@H]1[C@H](OC)[C@@H](C)C(=O)N[C@H](C)[C@@H](O)c1ccccc1)OC)N(C)C(=O)[C@@H](NC(=O)[C@H](C(C)C)N(C)C(=O)OCc1ccc(NC(=O)[C@H](CCCNC(N)=O)NC(=O)[C@@H](NC(=O)CCOCCC(=O)NCCNc2ncc(-c3cc(C)cc(F)c3)c(N3CCC(N)CC3)c2-c2nc3ccc(Cl)cc3[nH]2)C(C)C)cc1C(=O)NCC(N)=O)C(C)C [Compound 125] and report it.
### Response 8.41

### Prompt Find the recorded pEC50 belonging to CC[C@H](C)[C@@H]([C@@H](CC(=O)N1CCC[C@H]1[C@H](OC)[C@@H](C)C(=O)N[C@H](C)[C@@H](O)c1ccccc1)OC)N(C)C(=O)[C@@H](NC(=O)[C@H](C(C)C)N(C)C(=O)OCc1ccc(NC(=O)[C@H](C)NC(=O)[C@@H](NC(=O)[C@H](CCC(=O)O)NC(=O)CCOCCC(=O)NCCNc2ncc(-c3cc(C)cc(F)c3)c(N3CCC(N)CC3)c2-c2nc3ccc(Cl)cc3[nH]2)C(C)C)c(O[C@@H]2O[C@H](C(=O)O)[C@@H](O)[C@H](O)[C@H]2O)c1)C(C)C [Compound 145] and report it.
### Response 8.10

### Prompt Find the recorded pEC50 belonging to CC[C@H](C)[C@@H]([C@@H](CC(=O)N1CCC[C@H]1[C@H](OC)[C@@H](C)C(=O)N[C@H](C)[C@@H](O)c1ccccc1)OC)N(C)C(=O)[C@@H](NC(=O)[C@H](C(C)C)N(C)C(=O)OCc1ccc(NC(=O)[C@H](CCCNC(N)=O)NC(=O)[C@@H](CC(=O)CCOCCNCCNc2ncc(-c3cc(C)cc(F)c3)c(N3CCC(N)CC3)c2-c2nc3ccc(Cl)cc3[nH]2)C(C)C)cc1C(=O)NCCN)C(C)C [Compound 87] and report it.
### Response 7.59
